Data credit: patent US10781224B2

test system: rice (Diamant variety); assay: Rice seed treatment with BHMPA salts: germinating power; assay type: in vivo; details: rice seeds; solution concentration 1 · 10^−12%
METRIC NAME: Mass, dry, sprout, + % to control (%)
Write the answer as a number in %, unit excluded.

Data request: I would be grateful if you could share the reported Mass, dry, sprout, + % to control for O.O.O=P([O-])(CO)CO.O=P([O-])(CO)CO.[Mn+2] [Mn-salt, Manganese BHMPA Salt] .
Data returned: 23

Data request: I would be grateful if you could share the reported Mass, dry, sprout, + % to control for O=P([O-])(CO)CO.[Na+] [Na-salt, Sodium BHMPA Salt] .
Data returned: 27

Data request: I would be grateful if you could share the reported Mass, dry, sprout, + % to control for O=P([O-])(CO)CO.O=P([O-])(CO)CO.[Ca+2] [Ca-salt, Calcium BHMPA Salt] .
Data returned: 24

Data request: I would be grateful if you could share the reported Mass, dry, sprout, + % to control for O.O.O=P([O-])(CO)CO.O=P([O-])(CO)CO.[Co+2] [Co-salt, Cobalt BHMPA Salt] .
Data returned: 20

Data request: I would be grateful if you could share the reported Mass, dry, sprout, + % to control for O=P([O-])(CO)CO.O=P([O-])(CO)CO.[Mg+2] [Mg-salt, Magnesium BHMPA Salt] .
Data returned: 34
